Data provenance: patent US20220010003A1

Target: T1, recombinant human periostin (human, UniProt Q15063 22-836)
T1 construct: also called HuPOSTN; POSTN
T1 sequence: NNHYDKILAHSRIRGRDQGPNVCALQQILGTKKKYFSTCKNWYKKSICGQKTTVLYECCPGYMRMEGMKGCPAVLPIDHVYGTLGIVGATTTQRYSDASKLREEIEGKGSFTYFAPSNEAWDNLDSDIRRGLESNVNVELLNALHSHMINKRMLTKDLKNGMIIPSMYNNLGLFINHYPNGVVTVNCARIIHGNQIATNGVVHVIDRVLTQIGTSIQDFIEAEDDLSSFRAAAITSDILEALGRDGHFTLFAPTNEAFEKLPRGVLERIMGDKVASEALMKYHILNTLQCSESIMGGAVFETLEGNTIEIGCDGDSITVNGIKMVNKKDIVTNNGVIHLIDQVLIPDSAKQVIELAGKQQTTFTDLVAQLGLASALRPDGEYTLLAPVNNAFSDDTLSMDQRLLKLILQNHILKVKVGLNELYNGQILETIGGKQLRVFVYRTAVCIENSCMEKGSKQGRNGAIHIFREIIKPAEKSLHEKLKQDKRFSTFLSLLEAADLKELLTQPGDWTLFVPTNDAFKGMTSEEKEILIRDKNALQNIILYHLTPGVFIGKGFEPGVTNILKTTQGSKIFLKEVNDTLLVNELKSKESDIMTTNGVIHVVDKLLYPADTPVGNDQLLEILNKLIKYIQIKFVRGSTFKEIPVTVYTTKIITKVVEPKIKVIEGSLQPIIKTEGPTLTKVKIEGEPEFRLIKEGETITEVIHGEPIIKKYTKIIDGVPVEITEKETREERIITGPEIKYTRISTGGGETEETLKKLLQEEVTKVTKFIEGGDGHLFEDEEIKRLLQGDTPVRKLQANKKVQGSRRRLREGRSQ
Experiment: binding ELISA, periostin coated

binder	EC50, nM
NB0828 (antibody, V domains shown) VH: QVQLVQSGAEVKKPGASVKVSCKASGYTFTSYGISWVRQAPGQGLEWMGWISAYNGNTNYAQKLQGRVTMTTDTSTSTAYMELRSLRSDDTAVYYCARDMLVVPFDYWGQGTLVTVSS VL: QSVLTQSSSASGTPGQTVTVSCSGSSSDIGSNRVNWYQQLPGTAPKLLIYSNDQRPSGVPDRFSGSKSGTSASLAISGLQSADEADYYCAAWDDSLSTYVFGSGTKVTVL	0.12
NB1015 (N55D) (antibody, V domains shown, Variant of NB0828 (IgG4PAA parent); the isotype of the variant is not restated) VH: QVQLVQSGAEVKKPGASVKVSCKASGYTFTSYGISWVRQAPGQGLEWMGWISAYDGNTNYAQKLQGRVTMTTDTSTSTAYMELRSLRSDDTAVYYCARDMLVVPFDYWGQGTLVTVSS VL: QSVLTQSSSASGTPGQTVTVSCSGSSSDIGSNRVNWYQQLPGTAPKLLIYSNDQRPSGVPDRFSGSKSGTSASLAISGLQSADEADYYCAAWDDSLSTYVFGSGTKVTVL	0.12
NB1014 (N55T_M100V) (antibody, V domains shown, Double mutant of NB0828 (IgG4PAA parent); the isotype of the variant is not restated) VH: QVQLVQSGAEVKKPGASVKVSCKASGYTFTSYGISWVRQAPGQGLEWMGWISAYTGNTNYAQKLQGRVTMTTDTSTSTAYMELRSLRSDDTAVYYCARDVLVVPFDYWGQGTLVTVSS VL: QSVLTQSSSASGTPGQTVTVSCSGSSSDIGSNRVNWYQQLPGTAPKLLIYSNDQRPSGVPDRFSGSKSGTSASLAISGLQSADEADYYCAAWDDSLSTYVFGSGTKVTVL	9.47
